The following molecules are shown together with reported Weight, 2 weeks values.
Test system: C57/BL6 mice fed MCD diet
protocol.summary: Pharmacodynamic test in methionine-choline deficient diet (MCD) model of non-alcoholic fatty liver disease
Format: in vivo
measurement.setup: MCD mice, 2 weeks; TM compounds 30 mpk, obeticholic acid 40 mpk, once daily by gavage
recorded.endpoint: Weight, 2 weeks (g)

molecule	recorded.endpoint	reported.value
CC(C)c1onc(-c2c(Cl)cccc2Cl)c1COc1cnc(C2(O)CC(c3cccc(C(=O)O)c3)C2)cn1 (centres unmarked)	Weight, 2 weeks	18.29
Cc1cc(C(=O)O)cc(C2CC(O)(c3cnc(OCc4c(-c5c(Cl)cccc5Cl)noc4C(C)C)cn3)C2)c1 (centres unmarked)	Weight, 2 weeks	19.29
CC[C@H]1[C@@H](O)[C@@H]2[C@H](CC[C@]3(C)[C@@H]([C@H](C)CCC(=O)O)CC[C@@H]23)[C@@]2(C)CC[C@@H](O)C[C@@H]12 [obeticholic acid, reference compound]	Weight, 2 weeks	18.97
O=C(O)c1cccc(C2CC(O)(c3cnc(OCc4c(-c5c(Cl)cccc5Cl)noc4C4CC4)cn3)C2)c1 (centres unmarked)	Weight, 2 weeks	18.49
O=C(O)c1cccc(N2CC(O)(c3cnc(OCc4c(-c5c(Cl)cccc5Cl)noc4C4CC4)cn3)C2)c1	Weight, 2 weeks	18.81

----------
study.system: GST-labeled recombinant human FXR protein (Homo sapiens, UniProt Q96RI1)
Sequence (Q96RI1 262-486 limits assumed): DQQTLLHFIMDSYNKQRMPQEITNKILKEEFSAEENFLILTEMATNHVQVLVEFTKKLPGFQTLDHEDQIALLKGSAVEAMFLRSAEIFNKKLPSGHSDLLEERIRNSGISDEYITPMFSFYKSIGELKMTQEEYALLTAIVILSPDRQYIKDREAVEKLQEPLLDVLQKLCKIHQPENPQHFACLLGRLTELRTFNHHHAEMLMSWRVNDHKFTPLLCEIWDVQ
Sequence (Q15788 676-700 partner limits assumed): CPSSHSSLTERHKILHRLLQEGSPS
protocol.summary: Agonistic activity on FXR receptor (GST-FXR / SRC-1 bead assay, protein level)
measurement.setup: 0.4 nM FXR, 30 nM SRC-1, protein level
pEC50: −log10 of the molar value.
The following molecules are shown together with reported pEC50 values.

molecule	study.system	pEC50
Cc1cc(C(=O)O)cc(C2CC(O)(c3cnc(OCc4c(-c5c(Cl)cccc5Cl)noc4C(C)C)cn3)C2)c1 (stereo not shown)	GST-labeled recombinant human FXR protein (Homo sapiens, UniProt Q96RI1)	6.32
CS(=O)(=O)c1cccc(C2CC(O)(c3cnc(OCc4c(-c5c(Cl)cccc5Cl)noc4C4CC4)cn3)C2)c1 (stereo not shown)	GST-labeled recombinant human FXR protein (Homo sapiens, UniProt Q96RI1)	5.87
CC(C)c1onc(-c2c(Cl)cccc2Cl)c1COc1cnc(C2(O)CC(c3cccc(C(=O)O)c3)C2)cn1 (stereo not shown)	GST-labeled recombinant human FXR protein (Homo sapiens, UniProt Q96RI1)	5.62
Cc1cc(C(=O)O)cc(C2CC(O)(c3cnc(OCc4c(-c5c(Cl)cccc5Cl)noc4-c4ccccc4)cn3)C2)c1 (stereo not shown)	GST-labeled recombinant human FXR protein (Homo sapiens, UniProt Q96RI1)	5.25

----------
protocol.summary: Caco-2 monolayer cell membrane transport experiment
measurement.setup: human, Caco-2, Papp B-A, Caco-2 cell line (21 days), Table 5
Method: The bi-directional transport of target compounds from apical side (AP) to basolateral side (BL) and from BL side to AP side is studied by using human colon adenocarcinoma cell line Caco-2 monolayer model. The transport parameters, apparent permeability coefficient (Papp) and efflux ratio are calculated by quantitative analysis with high performance liquid chromatography (HPLC).

molecule	Papp B→A, ×10⁻⁶ cm/s
C[C@H]1O[C@@H](O[C@H]2[C@@H](O)C[C@H](O[C@H]3[C@@H](O)C[C@H](O[C@H]4CC[C@@]5(C)[C@H](CC[C@@H]6[C@@H]5C[C@@H](O)[C@]5(C)[C@@H](C7=CC(=O)OC7)CC[C@]65O)C4)O[C@@H]3C)O[C@@H]2C)C[C@H](O)[C@@H]1O [Digoxin, digoxin, reference compound]	11.6
